Below, each entry is listed alongside its reported log10 MIC.
tested on: Candida albicans; assay: Antifungal activity against Candida albicans VB 1723 by broth dilution method; format: functional
Record value = log10 of MIC given in µg/mL.

// below: answered compounds
| sample smiles | log10 MIC |
| --- | --- |
| CC(C)[C@H](N)c1nc2ccccc2n1Cc1cccc(Cl)c1 | -0.60 |
| OC(Cn1cncn1)(Cn1cncn1)c1ccc(F)cc1F | -0.30 |
| Cc1cccc(Cn2c([C@H](C)N)nc3ccccc32)c1 | 2.11 |
| CC(C)[C@H](N)c1nc2ccccc2n1Cc1cccc(F)c1 | 0.60 |
| Cc1cccc(Cn2c([C@@H](N)C(C)C)nc3ccccc32)c1 | 1.51 |

With those in mind, consider the next compound.
Inquiry: Identify log10 MIC associated with the compound `C[C@H](N)c1nc2ccccc2n1Cc1cccc(Cl)c1`
Reply text: 0.00
